Species on record: Rattus norvegicus
TEST SUMMARY: Open TG-GATES - Regimen: Single
Format: toxicity, organism-based, Sprague-Dawley
Parameters: regimen Single, gender Male, age 6 weeks
CONDITION INFO: in vivo, po, 30 mg/kg, 6 h, tissue Plasma, route gavage, dose level Middle
Catalogue of molecules with associated ALT
Provide only the numeric value, understood in IU/L.

CN(C)CCN(Cc1cccs1)c1ccccn1 : 34.2
CN(C)CCCN1c2ccccc2CCc2ccc(Cl)cc21 [CLOMIPRAMINE] : 39.2
CN(C)CCCN1c2ccccc2CCc2ccccc21 [IMIPRAMINE] : 40.2

Attention now shifts to the item below.
Report ALT for CC1=C(/C=C/C(C)=C/C=C/C(C)=C/CO)C(C)(C)CCC1 [RETINOL] 36.2
